Data provenance is patent EP1903056A2.

# tested.target: HLA-A*0201 (human)
# experiment: competitive inhibition, purified HLA
# stated.conditions: remark: other sources report otherwise
Each entry below carries its recorded IC50.
observed.property: IC50

binder	value
VMAGVGSPYV [Her2/neu.773 (10-mer)]	200 nM
YLQLVFGIEV [MAGE2.157]	50 nM
